test: Cytotoxicity against BALB/c mouse Splenocyte assessed as non-cytotoxic concentration after 24 hrs by [3H]-thymidine incorporation assay relative to control; type: cell-based; details: splenocytes, read-out: Activity
READOUT_NAME: MNTC at 24 h

INSERT INTO measurements (compound, meas_value) VALUES
  ('NC(=S)N/N=C/CCc1ccccc1', '< 1 µg/mL'),
  ('CCC1S/C(=N/N=C(\C)CSc2ccc(S)cc2)NC1=O (stereo unspecified)', '> 100 µg/mL'),
  ('CC/C(=N\NC(N)=S)c1cccc(Br)c1', '1 µg/mL'),
  ('CC1S/C(=N/N=C/CCSc2ccccc2)NC1=O (stereo unspecified)', '> 100 µg/mL'),
  ('CC1S/C(=N/N=C/CCSc2ccc(Cl)cc2)NC1=O (stereo unspecified)', '> 100 µg/mL'),
  ('CC1S/C(=N/N=C/CCSc2ccccc2)NC1=S (stereo unspecified)', '1 µg/mL');
